Data credit: patent US9637473B2

- Tested on: P. Falciparum NF54
- ASSAY_NOTES: Plasmodium falciparum in vitro assay ([3H]-hypoxanthine incorporation)
- Format: cell-based
- EXPERIMENTAL_CONTEXT: Plasmodium falciparum, Erythrocyte, P. Falciparum NF54, erythrocytic stages in human red blood cells, 50% human serum
pIC50: −log10 of the molar value.
OBSERVABLE: pIC50

P. Cc1cc(Nc2ccc(CN(CCCN3CCOCC3)C(=O)/C=C/c3ccc(C(F)(F)F)cc3)cc2)ccn1 [Example 173]
Q. CN(c1ccncc1)c1ccc(CN(C(=O)/C=C/c2ccc(OC(F)(F)F)cc2)C2CCN(Cc3ccccc3)CC2)cc1 [Example 146]
R. Cc1cc(Nc2ccc(CN(C(=O)/C=C/c3ccc(C(F)(F)F)cc3)C3CCN(C4CCN(C)CC4)CC3)cn2)ccn1 [Example 111]
Rank the listed molecules by pIC50, largest first. // ordering of labels required in reply
Q, R, P

====

- Test system: P. Falciparum NF54
- ASSAY_NOTES: Plasmodium falciparum in vitro assay ([3H]-hypoxanthine incorporation)
- Format: cell-based
- EXPERIMENTAL_CONTEXT: Plasmodium falciparum, Erythrocyte, P. Falciparum NF54, erythrocytic stages in human red blood cells, 50% human serum
pIC50: −log10 of the molar value. Counter-ions that a name gives are not always drawn.
OBSERVABLE: pIC50

Reference set (2 entries):
{"COMPOUND": "CN1CCC(N2CCC(CN(Cc3ccc(N(C)c4ccncc4)cc3)C(=O)/C=C/c3ccc(C(F)(F)F)cc3)CC2)CC1 [Example 187]", "pIC50": 7.80}
{"COMPOUND": "O=C(/C=C/c1ccc(C(F)(F)F)cc1)N(Cc1ccc(Nc2ccncc2)nc1)C1CCN(C2CCCC2)CC1 [Example 103]", "pIC50": 7.36}

a. Cc1cnccc1Nc1cccc(CN(C(=O)/C=C/c2ccc(C(F)(F)F)cc2)C2CCN(C(C)C)CC2)n1 [Example 130, formate]
b. CN1CCC(N2CCC(N(Cc3ccc(N(C)c4ccncc4)cc3)C(=O)/C=C/c3ccc(C(F)(F)F)cc3)CC2)CC1 [Example 26]
Hi there! Just curious which has the higher pIC50 between a and b . Record your answer as the label of the chosen record.
b

====

- Tested on: P. Falciparum NF54
- ASSAY_NOTES: Plasmodium falciparum in vitro assay ([3H]-hypoxanthine incorporation)
- Assay type: cell-based
- EXPERIMENTAL_CONTEXT: Plasmodium falciparum, Erythrocyte, P. Falciparum NF54, erythrocytic stages in human red blood cells, 50% human serum
Structures can show the parent of a compound that is named as a salt.
OBSERVABLE: IC50 (nM)

Reference set (4 entries):
{"COMPOUND": "CN(c1ccncc1)c1ccc(CN(C(=O)/C=C/c2ccc(C(F)(F)F)cc2)[C@H]2CCN(C3CCCC3)C2)cc1", "IC50 / nM": 86}
{"COMPOUND": "CN1CCC(N2CCC(N(Cc3ccc(Nc4ccncc4)cc3)C(=O)/C=C/c3ccc(C(F)(F)F)cc3)CC2)CC1", "IC50 / nM": 82}
{"COMPOUND": "CN(c1ccncc1)c1ccc(CN(C(=O)/C=C/c2ccc(C(F)(F)F)cc2)C2CCCN(C3CCCC3)CC2)cc1 (racemic)", "IC50 / nM": 79}
{"COMPOUND": "CC(C)N1CCC[C@H](N(Cc2ccc(N(C)c3ccncc3)cc2)C(=O)/C=C/c2ccc(C(F)(F)F)cc2)C1", "IC50 / nM": 120}

P. Cc1nc(CN2CCC(N(Cc3ccc(N(C)c4ccncc4)cc3)C(=O)/C=C/c3ccc(C(F)(F)F)cc3)CC2)co1
Q. Cc1cc(Nc2cncc(CN(C(=O)/C=C/c3ccc(C(F)(F)F)cc3)C3CCN(C(C)C)CC3)c2)ccn1 [Example 136, formate]
Hi there! Just curious which has the higher IC50 between P and Q . Record your answer as the label of the chosen record.
P
(P: 133 nM, Q: 80 nM)
